# IC50 per entry
System: human colorectal cancer cells (HCT116)
Assay: Growth inhibition assay (cytotoxicity) in HCT116
Format: cell-based
Settings: HCT-116
ASSAY_ENDPOINT: IC50

| COMPOUND | TARGET_SYSTEM | ASSAY_ENDPOINT | RECORDED_VALUE |
| --- | --- | --- | --- |
| CCNC(=O)c1noc(-c2cc(C(C)C)c(O)cc2O)c1-c1noc(O)n1 | human colorectal cancer cells (HCT116) | IC50 | > 1000 nM |
| CCNC(=O)c1noc(-c2cc(C(C)C)c(O)cc2O)c1-c1ccnn1C | human colorectal cancer cells (HCT116) | IC50 | < 500 nM |
| CCNC(=O)c1noc(-c2cc(C(C)C)c(O)cc2O)c1-c1noc(N(C)C)n1 | human colorectal cancer cells (HCT116) | IC50 | < 500 nM |
| CCNC(=O)c1noc(-c2cc(C(C)C)c(O)cc2O)c1-c1cc(C(=O)N2CCSCC2)no1 | human colorectal cancer cells (HCT116) | IC50 | < 500 nM |
| CCNC(=O)c1noc(-c2cc(C(C)C)c(O)cc2O)c1C1CC(CO)=NO1 (centres unmarked) | human colorectal cancer cells (HCT116) | IC50 | < 500 nM |
| CCCn1ccc(-c2c(C(=O)NCC)noc2-c2cc(C(C)C)c(O)cc2O)n1 | human colorectal cancer cells (HCT116) | IC50 | < 500 nM |
| CCNC(=O)c1noc(-c2cc(C(C)C)c(O)cc2O)c1-c1cc(CNC(=O)CC)no1 | human colorectal cancer cells (HCT116) | IC50 | < 500 nM |
| CCNC(=O)c1noc(-c2cc(C(C)C)c(O)cc2O)c1-c1noc(-c2ccccc2)n1 | human colorectal cancer cells (HCT116) | IC50 | < 500 nM |
| CCNC(=O)c1noc(-c2cc(C(C)C)c(O)cc2O)c1-c1ccn(C(C)C)n1 | human colorectal cancer cells (HCT116) | IC50 | < 500 nM |
| CCNC(=O)c1noc(-c2cc(C(C)C)c(O)cc2O)c1-c1cc(CN(CC)CC)no1 | human colorectal cancer cells (HCT116) | IC50 | < 500 nM |
| CCNC(=O)c1cc(-c2c(C(=O)NCC)n[nH]c2-c2cc(C(C)C)c(O)cc2O)on1 | human colorectal cancer cells (HCT116) | IC50 | > 1000 nM |
| C=CCO/N=C/c1cc(-c2c(C(=O)NCC)noc2-c2cc(C(C)C)c(O)cc2O)on1 | human colorectal cancer cells (HCT116) | IC50 | < 500 nM |
| CCNC(=O)c1noc(-c2cc(C(C)C)c(O)cc2O)c1-c1cc(CN2CCOCC2)no1 | human colorectal cancer cells (HCT116) | IC50 | < 500 nM |
| CCNC(=O)c1noc(-c2cc(C(C)C)c(O)cc2O)c1-c1cc(CN2CCN(C)CC2)no1 | human colorectal cancer cells (HCT116) | IC50 | < 500 nM |
| CCNC(=O)c1noc(-c2cc(C(C)C)c(O)cc2O)c1-c1noc(-c2ccc(OCC)cc2)n1 | human colorectal cancer cells (HCT116) | IC50 | > 1000 nM |
| CCNC(=O)c1noc(-c2cc(C(C)C)c(O)cc2O)c1-c1noc(S)n1 | human colorectal cancer cells (HCT116) | IC50 | 500 to 1000 nM |
| CCNC(=O)c1noc(-c2cc(C(C)C)c(O)cc2O)c1-c1nnn(C)n1 | human colorectal cancer cells (HCT116) | IC50 | < 500 nM |
| CCNC(=O)c1noc(-c2cc(C(C)C)c(O)cc2O)c1-c1cc(C(=O)NC)no1 | human colorectal cancer cells (HCT116) | IC50 | < 500 nM |
| CCNC(=O)c1noc(-c2cc(C(C)C)c(O)cc2O)c1-c1cc(CN2CCCC2)no1 | human colorectal cancer cells (HCT116) | IC50 | < 500 nM |
| CCNC(=O)c1noc(-c2cc(C(C)C)c(O)cc2O)c1-c1ccn(C)n1 | human colorectal cancer cells (HCT116) | IC50 | < 500 nM |
| CCNC(=O)c1noc(-c2cc(C(C)C)c(O)cc2O)c1-c1cc(CF)no1 | human colorectal cancer cells (HCT116) | IC50 | < 500 nM |
| CCNC(=O)c1noc(-c2cc(C(C)C)c(O)cc2O)c1-c1cc(CNCCO)no1 | human colorectal cancer cells (HCT116) | IC50 | < 500 nM |
| CCNCc1cc(-c2c(C(=O)NCC)noc2-c2cc(C(C)C)c(O)cc2O)on1 | human colorectal cancer cells (HCT116) | IC50 | < 500 nM |
| CCNC(=O)c1noc(-c2cc(C(C)C)c(O)cc2O)c1-c1noc([C@H](C)O)n1 | human colorectal cancer cells (HCT116) | IC50 | < 500 nM |
| CCNC(=O)c1noc(-c2cc(C(C)C)c(O)cc2O)c1-c1cc(C(N)=O)no1 | human colorectal cancer cells (HCT116) | IC50 | < 500 nM |
| C=CCNCc1cc(-c2c(C(=O)NCC)noc2-c2cc(C(C)C)c(O)cc2O)on1 | human colorectal cancer cells (HCT116) | IC50 | < 500 nM |
| CCNC(=O)c1noc(-c2cc(C(C)C)c(O)cc2O)c1-c1noc(N2CCOCC2)n1 | human colorectal cancer cells (HCT116) | IC50 | < 500 nM |
| CC(C)c1cc(-c2onc(Cn3ccnn3)c2-c2ccsc2)c(O)cc1O | human colorectal cancer cells (HCT116) | IC50 | < 500 nM |
| CCNC(=O)c1noc(-c2cc(C(C)C)c(O)cc2O)c1-c1noc(-c2cccs2)n1 | human colorectal cancer cells (HCT116) | IC50 | < 500 nM |
| CCNC(=O)c1noc(-c2cc(C(C)C)c(O)cc2O)c1-c1noc(N2CCCC2)n1 | human colorectal cancer cells (HCT116) | IC50 | < 500 nM |
| CCNC(=O)c1noc(-c2cc(C(C)C)c(O)cc2O)c1C1CC(C(=O)OCC)=NO1 (centres unmarked) | human colorectal cancer cells (HCT116) | IC50 | 500 to 1000 nM |
| CCNC(=O)c1noc(-c2cc(C(C)C)c(O)cc2O)c1-c1cnn(C(C)C)c1 | human colorectal cancer cells (HCT116) | IC50 | < 500 nM |
